target: DNA-PK (Homo sapiens, UniProt P12956+P13010); assay: DNA-PK phosphoryl-transferase kinase assay with p53 peptide substrate
Sequence (P12956 whole entry): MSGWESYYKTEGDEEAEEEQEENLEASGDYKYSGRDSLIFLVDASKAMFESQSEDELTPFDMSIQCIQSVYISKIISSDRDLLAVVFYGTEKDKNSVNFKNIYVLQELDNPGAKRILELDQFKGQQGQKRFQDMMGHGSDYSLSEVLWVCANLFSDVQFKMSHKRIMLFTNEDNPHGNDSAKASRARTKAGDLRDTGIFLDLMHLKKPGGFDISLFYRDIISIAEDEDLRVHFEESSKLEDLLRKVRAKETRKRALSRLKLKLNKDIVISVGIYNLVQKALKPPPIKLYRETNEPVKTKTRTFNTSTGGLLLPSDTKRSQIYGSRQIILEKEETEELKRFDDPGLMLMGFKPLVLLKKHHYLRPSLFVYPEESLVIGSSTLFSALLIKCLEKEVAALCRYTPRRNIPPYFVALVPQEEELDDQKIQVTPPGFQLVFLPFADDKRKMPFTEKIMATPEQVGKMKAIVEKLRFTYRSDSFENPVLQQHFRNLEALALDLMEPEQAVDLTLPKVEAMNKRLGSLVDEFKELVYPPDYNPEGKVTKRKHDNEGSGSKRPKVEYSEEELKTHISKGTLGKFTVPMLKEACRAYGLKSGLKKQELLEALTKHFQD
Sequence (P13010 whole entry): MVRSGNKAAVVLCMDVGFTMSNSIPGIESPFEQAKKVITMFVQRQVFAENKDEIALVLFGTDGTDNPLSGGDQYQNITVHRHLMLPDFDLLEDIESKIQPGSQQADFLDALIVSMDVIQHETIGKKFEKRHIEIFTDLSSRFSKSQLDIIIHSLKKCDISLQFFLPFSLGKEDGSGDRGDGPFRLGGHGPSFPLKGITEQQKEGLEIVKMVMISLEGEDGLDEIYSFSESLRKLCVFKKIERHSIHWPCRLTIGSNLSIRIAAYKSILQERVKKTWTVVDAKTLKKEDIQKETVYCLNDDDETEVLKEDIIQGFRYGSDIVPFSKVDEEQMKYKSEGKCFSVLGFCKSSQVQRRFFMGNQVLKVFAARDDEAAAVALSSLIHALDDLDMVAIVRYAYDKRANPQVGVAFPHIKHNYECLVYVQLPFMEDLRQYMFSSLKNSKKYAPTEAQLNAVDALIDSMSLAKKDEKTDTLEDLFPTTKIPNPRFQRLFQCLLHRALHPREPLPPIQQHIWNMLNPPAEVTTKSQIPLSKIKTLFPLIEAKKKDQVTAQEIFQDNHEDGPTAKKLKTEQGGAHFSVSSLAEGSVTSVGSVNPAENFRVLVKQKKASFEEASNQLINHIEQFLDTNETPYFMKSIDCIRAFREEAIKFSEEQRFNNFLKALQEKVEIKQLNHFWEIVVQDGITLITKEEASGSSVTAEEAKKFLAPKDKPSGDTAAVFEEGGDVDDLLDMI
quantity kind: pIC50
The value called pIC50 is obtained by taking minus log10 of the concentration in mol/L.

The examples below pair each entry with its known result.
Item under review: COc1cccc(NC(=O)c2cc(-c3ccc(/C=C4\C(=O)N(c5cccc(C(=O)O)c5)N=C4C)o3)ccc2Cl)c1 [compound 68] . Reported pIC50?
5.51

Same question, COc1cccc(NC(=O)c2cc(-c3ccc(CC4C(=O)N(c5cccc(-c6nnn[nH]6)c5)N=C4C)o3)ccc2Cl)c1 (stereo not shown) [compound 245] this time
6.62

Same question, COc1cccc(NC(=O)c2cc(-c3ccc(CC4C(=O)N(c5cccc(C(=O)O)c5)N=C4C(F)(F)F)o3)ccc2Cl)c1 (stereo not shown) [compound 322] this time
6.96

Let's switch to this compound now.
Item under review: COc1cccc(NC(=O)c2cc(-c3ccc(CC4C(=O)N(c5cccc(C(=O)O)c5)N=C4C)o3)ccc2Cl)c1 (stereo not shown) [compound 149] . Reported pIC50?
6.30
